# METHOD SUMMARY: Cytotoxicity Determination
# Assay type: cell-based
# RECORDED CONDITIONS: human, HEp-2 cells, without addition of virus, CCK-8 readout, bins (Table 4: greater than 100 μM; Table 5: equal to or less than 100 μM and greater than 10 μM), read-out: 50% cytotoxicity concentration (CC50)
PROPERTY MEASURED: CC50 at 5 days

Reported CC50 at 5 days of COCCOc1ccc(C(=O)NCC(=O)c2ccc(OC)c(-c3ccc(F)c(Cl)c3)n2)cc1C [Compound 1317] : > 100 µM

Reported CC50 at 5 days of COc1cc(C(=O)NCC(=O)N(C)C(=O)Nc2csc3c(F)cccc23)ccc1OCCO [Compound 2802] : > 100 µM

Reported CC50 at 5 days of COc1cc(C(=O)NCC(=O)c2ccc(OC(F)(F)F)c(-c3csc4c(F)cccc34)n2)ccc1OCCO [Compound 2107] : 10 to 100 µM

Reported CC50 at 5 days of COc1cc(C(=O)NCC(=O)c2ccc(OC)c(-c3ccc(Cl)c(Cl)c3)n2)ccc1OCCF [Compound 2627] : > 100 µM
